- assay-notes: chemical genetic growth profiling, strain panel (AID 1159580);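 note: tested at 20 µM; growth read once vehicle control cultures reached saturation at 30 °C; 1 = growth at the plate median or of vehicle wells; lower values mean less growth of the strain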
- condition-context: S. cerevisiae deletion strains, growth OD, strain wtn01
Among all 5,500 compounds or so, about 2,000 (36%) were called active. Roughly 18% stayed inconclusive and do not appear here. Cut-off read from the data, not from the text of the source: active = normalized growth mostly below about 0.91 (no sharp cut-off); inconclusive = no clear call, values can overlap the other calls; inactive = mostly above about 0.92. This is one part of the list.
Bench note: report the call from active, inactive

O=C1N=C(O)CN1/N=C\c1ccc(-c2ccc([N+](=O)[O-])cc2)o1; inactive
CCOP(=S)(OCC)SCCSCC; inactive
COC(=O)[C@H]1[C@H]2C[C@@H]3c4[nH]c5cc(OC)ccc5c4CCN3C[C@H]2C[C@@H](OC(=O)c2cc(OC)c(OC)c(OC)c2)[C@@H]1OC; inactive
CCOP(=S)(OCC)SCSCC; inactive
CN(C)CCCO[C@H]1[C@@H](C(O)CO)OC2OC(C)(C)O[C@@H]21 (stereo partly drawn); inactive

// return assay outcome for `O=C(O)c1cc(=O)c2c(OCC(O)COc3cccc4oc(C(=O)O)cc(=O)c34)cccc2o1`
inactive

// return assay outcome for CC(=O)N[C@@H]1[C@@H](C(O)[C@H](O)CO)O[C@](O)(C(=O)O)C[C@@H]1O (stereo partly drawn)
inactive

// return assay outcome for `O=C1OCCN1/N=C\c1ccc([N+](=O)[O-])o1`
active

// return assay outcome for `O=c1cccc2n1C[C@H]1CNCC2C1`
inactive

// return assay outcome for `O=C1CN(/N=C\c2ccc([N+](=O)[O-])o2)C(=O)N1`
inactive

// return assay outcome for `O=C(O)c1cc(=O)c(O)c2c(O)c(O)ccc2c1`
inactive

// return assay outcome for `COS(C)(=O)=O`
inactive

// return assay outcome for `S=c1[nH]c2ccccc2s1`
inactive

// return assay outcome for Nc1nc2c(c(=O)[nH]1)N(C=O)C(CNc1ccc(C(=O)N[C@@H](CCC(=O)O)C(=O)O)cc1)CN2 (stereo partly drawn)
inactive

// return assay outcome for `COP(=S)(OC)Oc1ccc(SC)c(C)c1`
inactive

// return assay outcome for CC[C@@H](C(=O)[C@@H](C)[C@@H](O)[C@H](C)[C@@H]1O[C@@H]([C@@H](CC)C(=O)O)CC[C@@H]1C)[C@H]1OC2(C=C[C@@H](O)[C@]3(CC[C@@](C)([C@H]4CC[C@](O)(CC)[C@H](C)O4)O3)O2)[C@H](C)C[C@@H]1C (stereo partly drawn)
active

// return assay outcome for CC[C@@H](C(=O)O)[C@@H]1O[C@@H]([C@@H](C)[C@H](O)[C@H](C)C(=O)[C@H](CC)[C@H]2O[C@]3(C=C[C@@H](O)[C@]4(CC[C@@](C)(C5CC[C@](O)(CC)[C@H](C)O5)O4)O3)[C@H](C)C[C@@H]2C)[C@@H](C)C[C@H]1C (stereo partly drawn)
active

// return assay outcome for `NC(=O)N/N=C\c1ccc([N+](=O)[O-])o1`
inactive

###

- assay-notes: chemical genetic growth profiling, strain panel (AID 1159580)
- condition-context: S. cerevisiae deletion strains, growth OD, locus YNL248C, strain rpa49
About 2,000 (36%) of roughly 5,500 compounds were called active. Not shown: some 18% with an inconclusive outcome. Cut-off read from the data, not from the text of the source: active = normalized growth mostly below about 0.91 (no sharp cut-off); inconclusive = no clear call, values can overlap the other calls; inactive = mostly above about 0.92. This is one part of the list.
Bench note: report the call from t = active, f = inactive

Some entries whose results are on file:
O=C(NC(=O)c1c(F)cccc1F)Nc1cc(Cl)c(OC(F)(F)C(F)C(F)(F)F)cc1Cl (stereo not given); f
Oc1ccc(/C=C/c2cc(O)cc(O)c2)cc1; f
C[C@H](COc1ccccc1)N[C@H](C)[C@H](O)c1ccc(O)cc1; f
CC(=O)O[C@H]1CC[C@@]2(C)C(=CCC3C2CC[C@]2(C)C(=O)CCC32)C1 (stereo not given in full); f
CC1(C)CC2C1CCC1(C)OC2(C)CCC1O (stereo not given); f
NC(=O)N/N=C\c1ccc([N+](=O)[O-])o1; f

// return assay outcome for `C[C@](N)(Cc1ccc(O)cc1)C(=O)O`
f

// return assay outcome for CC(Cc1ccc(O)c(O)c1)(NN)C(=O)O (stereo not given)
f

###

Below, each of the compounds is paired with its reported normalized growth value.
- assay-notes: chemical genetic growth profiling, strain panel (AID 1159580)
- condition-context: S. cerevisiae deletion strains, growth OD, locus YOR316C, strain cot1, active compounds read low
Out of some 5,500 compounds screened, about 2,000 (36%) were called active. Not shown: some 18% with an inconclusive outcome. Some of the results follow.
Just the number.

Sure, the documented normalized growth for `CC[C@]12CCCN3CCc4c(n(c5ccccc45)C(=O)C1)[C@@H]32` is 0.987

###

- assay-notes: chemical genetic growth profiling, strain panel (AID 1159580);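 note: tested at 20 µM; growth read once vehicle control cultures reached saturation at 30 °C; 1 = growth at the plate median or of vehicle wells; lower values mean less growth of the strain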
- condition-context: S. cerevisiae deletion strains, growth OD, locus YGR040W, strain KSS1, active compounds read low
Screen size: about 5,500 compounds; about 2,000 (36%) were called active. Another 18% or so got no clear call; they are omitted. This is one part of the list.
Below, each of the molecules is paired with its reported normalized growth value.

Solved cases below.
COc1ccccc1NC(=O)Nc1nn(C)c2cccc(OC)c12; 0.766 (inactive)
OC(c1ccc(C(F)(F)F)cc1)c1cccc(C(F)(F)F)c1 (stereo not given); 0.984 (inactive)

Sure, the documented normalized growth for `C/C(=N/OC(=O)Nc1ccc(Cl)cc1)c1ccc2c(c1)CCO2` is 0.835 (inactive)

Sure, the documented normalized growth for `CCCCCc1ccc(S(=O)(=O)Nc2ccc3c(c2)C(=O)OC3)cc1` is 0.949 (inactive)

Sure, the documented normalized growth for COc1ccccc1C(C[N+](=O)[O-])c1c(N)n(C)c(=O)n(C)c1=O (stereo not given) is 0.643 (active)

###

- assay-notes: chemical genetic growth profiling, strain panel (AID 1159580);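 note: tested at 20 µM; growth read once vehicle control cultures reached saturation at 30 °C; 1 = growth at the plate median or of vehicle wells; lower values mean less growth of the strain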
- condition-context: S. cerevisiae deletion strains, growth OD, locus YER015W, strain faa2, active compounds read low
The campaign covered roughly 5,500 compounds. About 2,000 (36%) were called active. About 18% were inconclusive and are not listed. The list shows a part of the results.
readout-label: normalized growth
Just the number.

Solved cases below.
CCn1cc(C(=O)O)c(=O)c2ccc(C)nc21; 0.947
CCn1cc(C(=O)O)c(=O)c2cnc(N3CCNCC3)nc21; 1.02
CCN(CC)CCOC(=O)C(Cc1cccc2ccccc12)CC1CCCO1 (stereo not given); 1.01
O=C(O)c1cc(=O)c2c(OCC(O)COc3cccc4oc(C(=O)O)cc(=O)c34)cccc2o1; 0.99

Now take the following compound into account.
Sure, the documented normalized growth for `CC1=C(/C=C/C(C)=C/C=C/C(C)=C/C(=O)O)C(C)(C)CCC1` is 0.995

###

- assay-notes: chemical genetic growth profiling, strain panel (AID 1159580);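 note: tested at 20 µM; growth read once vehicle control cultures reached saturation at 30 °C; 1 = growth at the plate median or of vehicle wells; lower values mean less growth of the strain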
- condition-context: S. cerevisiae deletion strains, growth OD, locus YLR357W, strain rsc2, active compounds read low
The campaign covered roughly 5,500 compounds. About 2,000 (36%) were called active. Not shown: some 18% with an inconclusive outcome. The list shows a part of the results.
readout-label: normalized growth

CCCN(CCC)CCc1cccc2c1CC(=O)N2; 0.961 (inactive)
CCn1cc(C(=O)O)c(=O)c2cc3c(cc21)OCO3; 0.944 (inactive)
COc1ccc(/C=C/C(=O)c2cc(O)ccc2O)cc1; 0.717 (active)
COc1ccc(C[C@H](N)C(=O)N[C@@H]2[C@@H](CO)OC(n3cnc4c(N(C)C)ncnc43)[C@@H]2O)cc1 (some centres not stated); 1.01 (inactive)
CC1(C)CC2C1CCC1(C)OC2(C)CCC1O (configuration not stated); 1.04 (inactive)

Sure, the documented normalized growth for `CCOC(N)=O` is 0.97 (inactive)

Sure, the documented normalized growth for `CC1=C(/C=C/C(C)=C/C=C/C(C)=C/CO)C(C)(C)CCC1` is 1.01 (inactive)

Sure, the documented normalized growth for CCOC(=O)CCCCCCCCCCCCC1C=CCC1 (configuration not stated) is 1 (inactive)

Sure, the documented normalized growth for CC1(C)CC2C1CCC1(C)OC1CCC2(C)O (configuration not stated) is 1.07 (inactive)

Sure, the documented normalized growth for `COc1cc(/C=C/C(=O)O)ccc1O` is 1.01 (inactive)

Sure, the documented normalized growth for CC(=O)OCC(=O)[C@@]12OC(C)(C)O[C@@H]1CC1C3C[C@H](F)C4=CC(=O)C=C[C@]4(C)[C@@]3(F)[C@@H](O)C[C@@]12C (some centres not stated) is 1.01 (inactive)

Sure, the documented normalized growth for `C[C@](N)(Cc1ccc(O)c(O)c1)C(=O)O` is 0.92 (inactive)

Sure, the documented normalized growth for `CC1=C(/C=C/C(C)=C/C=C/C(C)=C\C(=O)O)C(C)(C)CCC1` is 0.982 (inactive)

Sure, the documented normalized growth for `COc1ccc(/C=C/C(=O)O)cc1OC` is 0.988 (inactive)

Sure, the documented normalized growth for COc1ccccc1OCC(O)CN1CCN(CC(=O)Nc2c(C)cccc2C)CC1 (configuration not stated) is 0.99 (inactive)

Sure, the documented normalized growth for O=C(O)CCCCC1SCC2NC(=O)NC21 (configuration not stated) is 0.962 (inactive)

Sure, the documented normalized growth for CC1=CC(=O)CC(C)(C)C1(O)/C=C/C(C)=C\C(=O)O (configuration not stated) is 1.02 (inactive)
